Test: NCI Yeast Anticancer Drug Screen. Data for the rad50 strain (AID 155);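 further: 0% = growth of vehicle-only cultures of the same strain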
Conditions: S. cerevisiae rad50 strain growth inhibition; at 50.0 µM; hits give high values
This is part of a sample that, as a whole, favours compounds with a hit. Of some 79,000 tested, about 15% had one in any assay. Calls of active or inactive are those of the source. No stated cut-off is given here; in the data, active means growth inhibition above about 70%; inactive means the rest.
quantity: growth inhibition

## Input Recall and state the measured growth inhibition for Cc1cc(C2c3ccccc3-c3ccccc32)cc(C)c1O .
## Output 98.3% (active)

## Input Determine from records and report growth inhibition for COc1ccc2nc3cc(Cl)ccc3c(NCCC[N+](C)(C)CCCCCCCCCC[N+](C)(C)CCCNc3c4ccc(Cl)cc4nc4ccc(OC)cc34)c2c1
## Output 96% (active)

## Input Retrieve growth inhibition measured for OC(Cc1ccccc1)(Cc1ccccc1)c1ccccc1 and print it.
## Output 88.5% (active)

## Input Determine from records and report growth inhibition for NCCSC1(O)C(=O)c2ccccc2C1=O
## Output 94.4% (active)

## Input Could you please provide reported growth inhibition for C=C1C(=O)C23OC2C1CCC(=O)C1(C)CC[C@H](OC(C)=O)C(C)(C)[C@H]1CC3O (some centres undefined) ? Thanks!
## Output 99.2% (active)

## Input Give recorded growth inhibition. c1ccc([P+](c2ccccc2)(c2ccccc2)C2CCCCO2)cc1 (centres undefined)
## Output 67.8% (inactive)

## Input Using known records, supply growth inhibition for CC(=O)[O-].O=C(N/N=C/c1ccccc1[O-])c1ccccc1.[Zn+2]
## Output -2.05% (inactive)

## Input Fill in growth inhibition for record COc1ccc(C(c2c(O)c3ccccc3oc2=O)N2CCOCC2)cc1 (centres undefined)
## Output -8.2% (inactive)

## Input Find the measured growth inhibition of CC1=C(C(=O)OC(C)C)C(c2ccccc2[N+](=O)[O-])C(C(=O)OC(CO[N+](=O)[O-])CO[N+](=O)[O-])=C(C)N1 (centres undefined) and report it.
## Output 83.6% (active)

## Input State its growth inhibition: O=C(O)/C=C/C(=O)Nc1cc2c(cc1Br)-c1ccccc1C2Br (centres undefined)
## Output 9.15% (inactive)

## Input Report growth inhibition for CCc1nc(N)nc(N)c1-c1ccc(N(C)Cc2ccccc2)c([N+](=O)[O-])c1
## Output 8.55% (inactive)

## Input For the compound O=Nc1ccc(O)c(/C=N/O)c1 , report growth inhibition.
## Output 87.3% (active)

## Input Name the recorded growth inhibition of the item CCCCCCCCCCCCCCC/C([O-])=N/[N+](C)(C)CC(C)O (centres undefined) in your answer.
## Output 90.9% (active)

## Input Please supply the value of reported growth inhibition for the item CCOC(=O)C1(C#N)C(c2ccccc2)C1(C#N)C#N (centres undefined)
## Output 97.9% (active)

## Input Complete the entry with growth inhibition for O=[N+]([O-])c1cccn2nc(C3OC(CO)C(O)C3O)nc12 (centres undefined)
## Output -11.2% (inactive)

## Input Look up growth inhibition of CC[C@H]1CN2CCc3cc(OC)c(OC)cc3[C@@H]2C[C@@H]1C[C@H]1NCCc2cc(OC)c(OC)cc21 and report it.
## Output -7.4% (inactive)

## Input For the compound Cn1c(-c2ccc(/C=N/NC(=S)N/N=C/c3ccc(-c4c[n+]5ccsc5n4C)cc3)cc2)c[n+]2ccsc12 , report growth inhibition.
## Output 88.6% (active)

## Input Indicate its recorded growth inhibition; the compound in question is CC(O)C(NC(=O)OCc1ccccc1)C(=O)OC(c1ccccc1)c1ccccc1 (centres undefined)
## Output 98% (active)

## Input Output measured growth inhibition for this item: Cc1cc(OCCl)ccc1[N+](=O)[O-]
## Output 30.4% (inactive)

## Input Provide growth inhibition value for the following compound: COc1ccc(/C=C/c2ccnc3ccccc23)cc1OC
## Output 86.4% (active)

## Input Specify reported growth inhibition for the compound shown: O=S(=O)(Nc1ccc(-c2ccc(Cl)cc2)cc1)c1ccccc1
## Output 92.5% (active)

## Input Answer with reported growth inhibition of NS(=O)(=O)c1ccc(NC(=O)Cc2nc3ccccc3s2)cc1
## Output 91% (active)

## Input # return recorded growth inhibition for entry CCCCNCc1c(O)ccc2ccccc12
## Output 99.1% (active)

## Input Input O=C(O)CCC(O)=C1S(=O)(=O)OCCOS1(=O)=O , output reported growth inhibition.
## Output 36% (inactive)

Origin of values: PubChem BioAssay (NCI)
